Listed molecules paired with reported viscosity
assay: xn = mol fraction of the nth substance listed; details: 293.15 K; 100 kPa; Liquid; Cone and plate viscometry; x1 = 0.101
± gives the expanded uncertainty stated by the source.
MEASUREMENT_TYPE: viscosity

{"MOLECULE": "CCCCCCC[P+](CC)(CC)CC.O=[N+]([O-])c1cn[n-]c1 [triethylheptylphosphonium 4-nitropyrazolide] + CC[P+](CC)(CC)COCCOC.O=S(=O)([N-]S(=O)(=O)C(F)(F)F)C(F)(F)F", "READING": "50 ± 6 mPa·s"}
{"MOLECULE": "CCCCCCn1cc[n+](C)c1.O=[N+]([O-])c1cn[n-]c1 [1-hexyl-3-methylimidazolium 4-nitropyrazolide] + CCCCCCCCCCCCCC[P+](CCCCCC)(CCCCCC)CCCCCC.O=S(=O)([N-]S(=O)(=O)C(F)(F)F)C(F)(F)F", "READING": "410 ± 52 mPa·s"}
{"MOLECULE": "CC(=O)[O-].CCCCCCCCCCCCCC[P+](CCCCCC)(CCCCCC)CCCCCC [trihexyl(tetradecyl)phosphonium acetate] + CCCCCC[n+]1ccn(C)c1.O=S(=O)([N-]S(=O)(=O)C(F)(F)F)C(F)(F)F", "READING": "136 ± 17 mPa·s"}
{"MOLECULE": "CCCCCCn1cc[n+](C)c1C.O=[N+]([O-])c1cn[n-]c1 [1-hexyl-2,3-dimethylimidazolium 4-nitropyrazolide] + CCCCCCCC[P+](CC)(CC)CC.O=S(=O)([N-]S(=O)(=O)C(F)(F)F)C(F)(F)F", "READING": "151 ± 19 mPa·s"}
